Molecular target: AVPR2 (Homo sapiens, UniProt P30518)
Construct: purchased Promega (in-house HiBiT-GPCR construct library, NanoBRET)
Sequence (P30518 whole entry): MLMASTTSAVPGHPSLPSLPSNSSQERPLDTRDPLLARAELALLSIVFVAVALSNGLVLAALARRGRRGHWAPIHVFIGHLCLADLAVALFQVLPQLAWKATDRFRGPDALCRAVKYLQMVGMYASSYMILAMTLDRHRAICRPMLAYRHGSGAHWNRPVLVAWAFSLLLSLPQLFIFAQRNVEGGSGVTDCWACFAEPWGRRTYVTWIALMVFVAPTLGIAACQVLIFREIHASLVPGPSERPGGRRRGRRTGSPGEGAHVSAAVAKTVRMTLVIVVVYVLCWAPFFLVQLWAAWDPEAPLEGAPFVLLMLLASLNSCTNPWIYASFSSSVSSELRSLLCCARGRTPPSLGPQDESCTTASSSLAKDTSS
Experiment: NanoBRET screen HiBiT-AVPR2 in HEK293
Type: binding
Conditions: AVPR2; tracer 0.1μM
Field: NanoBRET Fold Response. Provide a value for each of the compounds that follow.
Numbers only.

Here is how some compounds turned out for NanoBRET Fold Response.
# compound, NanoBRET Fold Response
data = [
    ("O=C(CCOCCOCCOCCOCCNC(=O)CCc1ccc2n1[B-](F)(F)[N+]1=C(c3ccc[nH]3)C=CC1=C2)NCCCN1CCN(C2=Nc3ccccc3Oc3ccc(Cl)cc32)CC1 [Loxapine-a-2-NB590]", 1.04),
    ("N#CN=C(NCCCOc1cccc(CN2CCCCC2)c1)NCCNC(=O)CCOCCOCCOCCOCCNC(=O)CCc1ccc2n1[B-](F)(F)[N+]1=C(c3ccc[nH]3)C=CC1=C2 [Aminopotentidine-2-NB590]", 1.01),
]

Problem: Quick check: NanoBRET Fold Response of O=C(CCc1ccc2n1[B-](F)(F)[N+]1=C(c3ccc[nH]3)C=CC1=C2)NCc1ccc(C(=O)NCCOCCC(=O)N[C@@H]2CC[C@@]3(O)[C@H]4Cc5ccc(O)c6c5[C@@]3(CCN4CC3CC3)[C@H]2O6)cc1 [Naltrexone-3-NB590] ?
Solution: 1.30

The measurements presented in this section are drawn from paper PMC8151276.
